test: AUC (0 to infinity) in CD1 mouse at 45 mg/m'2 of body surface, po administered as single dose; format: ADME, organism-based; design: time infinity, route oral; details: plasma
quantity: AUC(0-inf) (µM·h)
Give bare numbers, in µM·h.

Example results:
COc1cc2c(cc1C(N)=O)CC[C@@H]1[C@@H]2CC[C@]2(C)C=CC[C@@H]12    3.36
COc1cc2c(cc1O)CC[C@@H]1[C@@H]2CC[C@]2(C)[C@@H](O)CC[C@@H]12    0.142

Look at each compound and report its AUC(0-inf).
1. C=C1CC[C@H]2[C@@H]3CCc4cc(C(N)=O)c(OC)cc4[C@H]3CC[C@]12C
2. COc1cc2c(cc1C(N)=O)CC[C@@H]1[C@@H]2CC[C@]2(C)CCC[C@@H]12

3.2
2.53
